Hey, just so you know, these numbers are from patent US11103467B2.

# stated-conditions: both, human, serum, iv, 5 mg
measured-metric: AUC(0-inf) (ng·h/mL)
Form entry: value (ng·h/mL) — number only.

The molecule listed as CNC1(c2ccccc2Cl)CCCCC1=O (racemic) [(±)-ketamine] shows AUC(0-inf) equal to 59.9

* * *

# stated-conditions: both, human, serum, iv, 5 mg
measured-metric: Cmax (ng/mL)
Form entry: value (ng/mL) — number only.

The compound listed as CNC1(c2ccccc2Cl)CCCCC1=O (racemic) [(±)-ketamine] shows Cmax equal to 33.7

* * *

# stated-conditions: both, human, serum, iv, 5 mg
measured-metric: half-life

The compound listed as CNC1(c2ccccc2Cl)CCCCC1=O (racemic) [(±)-ketamine] shows half-life equal to 6.99 h
